# STUDY_SYSTEM: Neuraminidase (Influenza A virus, UniProt B4URF0)
# PROCEDURE_TEXT: Inhibition of Influenza A virus (A/Uruguay/716/2007(H3N2)) neuraminidase using fluorogenic substrate 2'-(4-methylumbelliferyl)-alpha-D-N-acetylneuraminic acid preincubated with inhibitor for 30 mins measured after 15 mins by fluorescence analysis
pIC50: −log10 of the molar value.
Cut-off 6 on pIC50, inclusive. At or above means met; below means not met.

> print(dat)
                                   compound                              study.system  answer.label
1  CCC(C)OCc1cc(C(=O)O)ccc1N1C(=O)CCC1(CO)CO (stereo unspecified)  Neuraminidase (Influenza A virus, UniProt B4URF0)           met

[Q] Dear colleague, could you confirm whether CC(C)OCc1cc(C(=O)O)ccc1N1C(=O)CCC1(CO)CO has pIC50 at or above 6?
[A] not met

[Q] Dear colleague, could you confirm whether O=C(O)c1ccc(N2C(=O)CCC2(CO)CO)c(COCc2ccccc2)c1 has pIC50 at or above 6?
[A] not met

[Q] Dear colleague, could you confirm whether CCC(CC)OCc1cc(C(=O)O)ccc1N1C(=O)CCC1(CO)CO has pIC50 at or above 6?
[A] met

[Q] Dear colleague, could you confirm whether CC(C)Cc1cc(C(=O)O)ccc1N1C(=O)CCC1(CO)CO has pIC50 at or above 6?
[A] not met

[Q] Dear colleague, could you confirm whether O=C(O)c1ccc(N2C(=O)CCC2(CO)CO)c(COc2ccccc2)c1 has pIC50 at or above 6?
[A] not met

* * *

# STUDY_SYSTEM: UniProtKB B4URF0
# PROCEDURE_TEXT: Inhibition of Influenza A virus (A/Solomon Islands/3/2006(H1N1)) neuraminidase using fluorogenic substrate 2'-(4-methylumbelliferyl)-alpha-D-N-acetylneuraminic acid preincubated with inhibitor for 30 mins measured after 15 mins by fluorescence analysis
Hi there, I'd appreciate the recorded pIC50 for every entry that follows.
One number for each entry, as −log10 of the molar value.

Return reported pIC50 values for all items listed beneath this line.
1. CCC(C)OCc1cc(C(=O)O)ccc1N1C(=O)CCC1(CO)CO (centres undefined)
2. CCC(CC)OCc1cc(C(=O)O)ccc1N1C(=O)CCC1(CO)CO
3. O=C(O)c1ccc(N2C(=O)CCC2(CO)CO)c(COc2ccccc2)c1
4. O=C(O)c1ccc(N2C(=O)CCC2(CO)CO)c(COCc2ccccc2)c1

[A]
[4.96, 6.10, 3.40, 2.80]

* * *

# STUDY_SYSTEM: Neuraminidase (Influenza A virus)
# PROCEDURE_TEXT: Inhibition of Influenza A virus (A/Brisbane/59/2007(H1N1)) neuraminidase using fluorogenic substrate 2'-(4-methylumbelliferyl)-alpha-D-N-acetylneuraminic acid preincubated with inhibitor for 30 mins measured after 15 mins by fluorescence analysis
REPORTED_PROPERTY: IC50 (µM)
Give bare numbers, in µM.

[Q] I'd like to know its IC50. The molecule in question is CCC(CC)OCc1cc(C(=O)O)ccc1N1C(=O)CCC1(CO)CO
[A] 1

* * *

# STUDY_SYSTEM: Neuraminidase (Influenza A virus)
REPORTED_PROPERTY: Ki (µM)
Answers are plain numbers, in µM.

[Q] I'd like to know its Ki. The compound in question is CC(=O)N[C@H]1[C@H]([C@H](O)[C@H](O)CO)OC(C(=O)O)=C[C@@H]1O [NEU5AC2EN]
[A] 4

* * *

# STUDY_SYSTEM: Neuraminidase (Influenza A virus (A/Puerto Rico/8/1934(H1N1)), UniProt P03468)
REPORTED_PROPERTY: pIC50
One number for each entry, as −log10 of the molar value.

[Q] I'd like to know its pIC50. The compound in question is CCC(CC)Nc1cc(C(=O)O)ccc1N1C(=O)CCC1(CO)CO
[A] 4.10

* * *

Hi there, I'd appreciate the recorded pIC50 for every entry that follows.
# STUDY_SYSTEM: UniProt B4URF0
# PROCEDURE_TEXT: Inhibition of Influenza A virus (A/Wisconsin/67/2005(H3N2)) neuraminidase using fluorogenic substrate 2'-(4-methylumbelliferyl)-alpha-D-N-acetylneuraminic acid preincubated with inhibitor for 30 mins measured after 15 mins by fluorescence analysis
One number for each entry, as −log10 of the molar value.

> print(dat)
                               smiles.input    study.system  reported.property  readout.number
1  CCCC(CCC)Cc1cc(C(=O)O)ccc1N1C(=O)CCC1(CO)CO  UniProt B4URF0              pIC50            6.30

Return reported pIC50 values for all items listed beneath this line.
1. CCC(CC)Cc1cc(C(=O)O)ccc1N1C(=O)CCC1(CO)CO
2. CCC(=Cc1cc(C(=O)O)ccc1N1C(=O)CCC1(CO)CO)CC

[A]
1. 6.70
2. 6.39

* * *

# STUDY_SYSTEM: Neuraminidase (Influenza A virus)
# PROCEDURE_TEXT: Inhibition of Influenza A virus (A/Oklahoma/3052/2009(H1N1)) neuraminidase using fluorogenic substrate 2'-(4-methylumbelliferyl)-alpha-D-N-acetylneuraminic acid preincubated with inhibitor for 30 mins measured after 15 mins by fluorescence analysis
Hi there, I'd appreciate the recorded IC50 for every entry that follows.
Give bare numbers, in µM.

> print(dat)
                               smiles.input  readout.number
1  CCC(CC)Cc1cc(C(=O)O)ccc1N1C(=O)CCC1(CO)CO             3.2

Please look at the following compound next.
[Q] I'd like to know its IC50. The compound in question is CCC(=Cc1cc(C(=O)O)ccc1N1C(=O)CCC1(CO)CO)CC
[A] 3.4

* * *

# PROCEDURE_TEXT: Inhibition of Influenza B virus (B/Malayasia/5206/04) neuraminidase using fluorogenic substrate 2'-(4-methylumbelliferyl)-alpha-D-N-acetylneuraminic acid preincubated with inhibitor for 30 mins measured after 15 mins by fluorescence analysis
REPORTED_PROPERTY: pIC50
Answers are plain numbers, as −log10 of the molar value.

> print(dat)
                                   molecule  readout.number
1  CCC(C)OCc1cc(C(=O)O)ccc1N1C(=O)CCC1(CO)CO (configuration not stated)            4.10

[Q] I'd like to know its pIC50. The molecule in question is CCC(CC)OCc1cc(C(=O)O)ccc1N1C(=O)CCC1(CO)CO
[A] 4.52

* * *

# STUDY_SYSTEM: Neuraminidase (Influenza B virus (strain B/Lee/1940), UniProt P03474)
# PROCEDURE_TEXT: Inhibition of Influenza B virus (B/Lee/1940) neuraminidase using fluorogenic substrate 2'-(4-methylumbelliferyl)-alpha-D-N-acetylneuraminic acid preincubated with inhibitor for 30 mins measured after 15 mins by fluorescence analysis
REPORTED_PROPERTY: IC50 (µM)
One number for each entry, in µM.

[Q] I'd like to know its IC50. The compound in question is CCC(CC)Nc1cc(C(=O)O)ccc1N1C(=O)CCC1(CO)CO
[A] 271

* * *

# STUDY_SYSTEM: Neuraminidase (Influenza A virus (strain A/Udorn/307/1972 H3N2), UniProt P0DOF9)
# PROCEDURE_TEXT: Inhibition of Influenza A virus (A/udorn/1972(H3N2)) neuraminidase using fluorogenic substrate 2'-(4-methylumbelliferyl)-alpha-D-N-acetylneuraminic acid preincubated with inhibitor for 30 mins measured after 15 mins by fluorescence analysis
REPORTED_PROPERTY: pIC50
Numbers only, as −log10 of the molar value.

[Q] Lab note: need pIC50 with Neuraminidase (Influenza A virus (strain A/Udorn/307/1972 H3N2), UniProt P0DOF9) for entry CCC(CC)Nc1cc(C(=O)O)ccc1N1C(=O)CCC1(CO)CO , please look it up.
[A] 6.31
